Test system: T47D cells
ASSAY: Cell-based assay: anti-proliferative activity, Cell Counting Kit-8, 72 hours (T47D)
CONDITION_DESCRIPTION: Homo sapiens, T47D, 72 h
Structures can show the parent of a compound that is named as a salt.
PROPERTY_NAME: log10 of IC50 (log10 of the value in µM)
Recall that a logarithmic scale is used here: each number is log10 of IC50 in µM.

Example compounds with recorded log10 of IC50:
COMPOUND | EXPERIMENTAL_SYSTEM | ENDPOINT_VALUE
COc1cc(-c2ccc3ncc(C(C)=O)c(N[C@H]4CC[C@H](CN5CCCC5)CC4)c3c2)cc(Cl)c1O | T47D cells | -0.29
CC(=O)c1cnc2ccc(-c3cc(Cl)c(O)c(Cl)c3)cc2c1N[C@@H]1CC[C@@H](CN2CCN(C)CC2)C1 | T47D cells | -0.08

Prompt: Recorded log10 of IC50 of COC(=O)c1ccc(-c2ccc3ncc(C(=O)C4CC4)c(N4CCC(CN(C)C)CC4)c3c2)cc1 , please.
Response: 1.00

Prompt: Bench note: what log10 of IC50 did CN(C)CC1CCN(c2c(C(=O)C3CCCC3)cnc3ccc(-c4ccc(O)c(Cl)c4)cc23)CC1 show?
Response: 0.46

Prompt: Quick one: log10 of IC50 for CCCC(=O)c1cnc2ccc(-c3cc(Cl)c(O)c(OC)c3)cc2c1N[C@H]1CC[C@H](CN(C)C)CC1 ?
Response: -0.62

Prompt: What does the data say about its log10 of IC50? Entry: CN(C)Cc1ccc(Nc2c(S(C)(=O)=O)cnc3ccc(-c4cc(F)c(O)c(Cl)c4)cc23)cc1
Response: -0.57

Prompt: Fill in the blank: the reported log10 of IC50 of NC1CCN(c2ccc(Nc3c(C(=O)C4CC4)cnc4ccc(-c5cc(F)c(O)c(Cl)c5)cc34)cn2)CC1 is ____.
Response: -0.96

Prompt: Which value of log10 of IC50 has been reported for CN(C)Cc1ccc(Nc2c(S(C)(=O)=O)cnc3ccc(-c4cc(Cl)c(O)c(Cl)c4)cc23)cc1 in the records?
Response: -0.64

Prompt: Endpoint output: log10 of IC50 of CCN(CC)C[C@H]1CC[C@H](Nc2c(C(C)=O)cnc3ccc(-c4cc(Cl)c(O)c(OC)c4)cc23)CC1 [Example 791, hydrochloride] . Value?
Response: -0.24

Prompt: So what's the measured log10 of IC50 for this one? COc1cc(-c2ccc3ncc(C(=O)C4CC4)c(-c4ccc(C(=O)N5CCN(C)CC5)cc4)c3c2)cc(Cl)c1O
Response: -0.64

###

Test system: HT-1197 cells
ASSAY: Cell-based assay: anti-proliferative activity, Cell Counting Kit-8, 72 hours (HT-1197, negative control without MELK expression)
CONDITION_DESCRIPTION: Homo sapiens, HT1197, 72 h, HT1197 cells (negative control), 72 hours
Counter-ions that a name gives are not always drawn.
PROPERTY_NAME: log10(IC50) (log10 of the value in µM)
A value of 2 here means IC50 of 100 in µM, since values are log10.

COMPOUND | EXPERIMENTAL_SYSTEM | PROPERTY_NAME | ENDPOINT_VALUE
CCCC(=O)c1cnc2ccc(-c3cnc(C#N)nc3)cc2c1Nc1ccc(CN(C)C)cc1 | HT-1197 cells | log10(IC50) | 0.20
O=C(c1cnc2ccc(-c3cc(F)c(O)c(Cl)c3)cc2c1Nc1cncc(CCN2CCCC2)c1)C1CC1 | HT-1197 cells | log10(IC50) | 2.00
COc1cc(-c2ccc3ncc(C(=O)C4CC4)c(C4=CCN(C(=O)CN(C)C)CC4)c3c2)cc(Cl)c1O | HT-1197 cells | log10(IC50) | 0.18
CC(=O)c1cnc2ccc(-c3cc(F)c(O)c(Cl)c3)cc2c1Nc1ccc(S(=O)(=O)N2CCN(C)CC2)cc1 [Example 894, hydrochloride] | HT-1197 cells | log10(IC50) | 1.80
CC(=O)c1cnc2ccc(-c3cc(F)c(O)c(Cl)c3)cc2c1N[C@H]1CC[C@H](NC(=O)[C@@H]2CCCN2)CC1 | HT-1197 cells | log10(IC50) | 1.00

Prompt: Reported log10(IC50) for CC(=O)c1cnc2ccc(-c3ccc(O)cc3)cc2c1N[C@H]1CC[C@H](CN(C)C)CC1 [Example 935, dihydrochloride] : what is it?
Response: 0.63

Prompt: Find the recorded log10(IC50) belonging to CC(C)(N)c1ccc(Nc2c(C(=O)C3CC3)cnc3ccc(-c4cc(F)c(O)c(Cl)c4)cc23)cc1 and report it.
Response: -0.10
